Hey, just so you know, these numbers are from patent US12398154B2.

Molecular target: KRas G12R (Homo sapiens, UniProt P01116, G12R);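 further: TR-FRET displacement assay of compound binding to KRas, read after one hour at room temperature, potency from a four-parameter fit of percent-of-control values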
Sequence (P01116 1-169 isoform P01116-2 G12R): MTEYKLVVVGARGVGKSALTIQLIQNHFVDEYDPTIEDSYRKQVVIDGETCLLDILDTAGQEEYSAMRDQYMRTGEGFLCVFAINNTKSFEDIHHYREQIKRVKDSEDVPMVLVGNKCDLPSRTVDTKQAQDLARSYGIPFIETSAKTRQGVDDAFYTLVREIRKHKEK
Experiment: biochemical
READOUT_KIND: pIC50
Numbers only, as −log10 of the molar value.

Example compounds with recorded pIC50:
- COMPOUND: "CCc1c(F)ccc2cc(O)cc(-c3ncc4c(NCCC5CCC(=O)N5)nc(OC[C@@]56CCCN5C[C@H](F)C6)nc4c3F)c12 (stereo partly drawn)"
  pIC50: 7.92
- COMPOUND: "C[C@H]1C[C@H]1c1c(Cl)cc2[nH]ncc2c1-c1ncc2c(N3CCC[C@@](C)(O)C3)nc(OC[C@@]34CCCN3C[C@H](F)C4)nc2c1F (racemic)"
  pIC50: 8.00

Exam item: Value wanted: pIC50 (KRas G12R (Homo sapiens, UniProt P01116, G12R)) of entry Fc1c(-c2cccc3cccc(F)c23)ncc2c(NCCc3cnoc3)nc(OCC34CCCN3CCC4)nc12
Marked response: 5.32

----------
System: pERK in HCT116 cells
Test: Inhibition of KRas phosphorylation of ERK (Cisbio HTRF pERK assay)
Conditions: Homo sapiens, HCT-116, read-out: Inhibition (HTRF IC50) of KRas-mediated Phosphorylation of ERK, HCT116
READOUT_KIND: IC50

- MOLECULE: "CCc1c(F)ccc2cc(O)cc(-c3ncc4c(N5CCCn6nc(CO)cc6C5)nc(OC[C@@]56CCCN5C[C@H](F)C6)nc4c3F)c12"
  IC50: "1320 nM"
- MOLECULE: "CCc1c(F)ccc2cc(O)cc(-c3ncc4c(NCC5CCC(=O)N5)nc(OC[C@@]56CCCN5C[C@H](F)C6)nc4c3F)c12 (some centres unmarked)"
  IC50: "9340 nM"

Could you report IC50 for every entry in the following list?
1. CCc1c(F)ccc2cc(O)cc(-c3ncc4c(N5CCC[C@]6(CC(=O)N6)C5)nc(OC[C@@]56CCCN5C[C@H](F)C6)nc4c3F)c12 (single isomer, unassigned)
2. CCc1c(F)ccc2cc(O)cc(-c3ncc4c(NCC5CC(=O)NC5=O)nc(OC[C@@]56CCCN5C[C@H](F)C6)nc4c3F)c12 (some centres unmarked)

Marked response:
["686 nM", "375 nM"]

----------
Target: KRas G12V (Homo sapiens, UniProt P01116, G12V);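 further: KRas binding measured by TR-FRET displacement at room temperature, IC50 fitted from percent of control values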
Sequence (P01116 1-169 isoform P01116-2 G12V): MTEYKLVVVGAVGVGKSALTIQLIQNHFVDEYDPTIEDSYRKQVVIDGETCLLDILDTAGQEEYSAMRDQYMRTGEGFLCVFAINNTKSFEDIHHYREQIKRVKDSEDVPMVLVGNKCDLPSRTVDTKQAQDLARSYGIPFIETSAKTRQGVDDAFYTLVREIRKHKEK
Assay: biochemical
Provide the reported IC50 of each item.

Example compounds with recorded IC50:
- COMPOUND: "NS(=O)(=O)CC1CCCN(c2nc(OCC34CCCN3CCC4)nc3c(F)c(-c4cccc5cccc(Cl)c45)ncc23)C1 (stereo not drawn)"
  IC50: "170 nM"
- COMPOUND: "C[C@@]1(O)CCCN(c2nc(OC[C@@]34CCCN3C[C@H](F)C4)nc3c(F)c(-c4cc(O)cc5ccc(F)c(Cl)c45)ncc23)C1"
  IC50: "≤ 2 nM"
- COMPOUND: "C#Cc1c(F)ccc2cc(O)cc(-c3ncc4c(N5CCOCC(CO)C5)nc(OC[C@@]56CCCN5C[C@H](F)C6)nc4c3F)c12 (stereo partly drawn)"
  IC50: "≤ 2 nM"
- COMPOUND: "Oc1cc(-c2ncc3c(N4CC5CC(O)CC4C5)nc(OC[C@@]45CCCN4C[C@H](F)C5)nc3c2F)c2c(Br)c(F)ccc2c1 (stereo partly drawn)"
  IC50: "≤ 2 nM"
- COMPOUND: "CCc1c(F)ccc2cc(O)cc(-c3ncc4c(N5CCC[C@@](C)(O)C5)nc(OC[C@@H]5CCCN5C)nc4c3F)c12"
  IC50: "≤ 2 nM"

Pending compound:
Exam item: Requested field: IC50. Item: Fc1c(-c2cccc3cccc(F)c23)ncc2c(NCc3cn[nH]c3)nc(OCC34CCCN3CCC4)nc12
Marked response: 2930 nM
